Measured log10 of Kd values are reported for all entries that follow.
- system under test: T1, recombinant c-Met extracellular domain (human, UniProt P08581 16-932)
- T1 construct: Construct used for SPR is not described further (may be the Fc chimera, as the protocol captures on anti-human Fc)
- experimental protocol: SPR (ProteOn) per Example 3
Lab note - Kd converted to log10 from values in nM.

binder="ECB108 (designed binder, not shown: small tags and cut ends, Bispecific: P54AR4-83v23, (AP)5, P114AR9P122-A7v2) MLPAPKNLVVSEVTEDSARLSWDDPHAFYESFLIQYQESEKVGEAIVLTVPGSERSYDLTGLKPGTEYTVSIYGVHNVYKDTNIRGLPLSAIFTTAPAPAPAPAPLPAPKNLVVSRVTEDSARLSWTAPDAAFDSFWIRYFEFVSKGDAIVLTVPGSERSYDLTGLKPGTEYVVNILGVKGGSISPPLSAIFTT" meas_value=1.41

// ECB95 (designed binder, not shown: small tags and cut ends, Bispecific: P54AR4-83v22, (AP)5, P114AR9P121-A6v2) MLPAPKNLVVSEVTEDSARLSWDDPWAFYESFLIQYQESEKVGEAIVLTVPGSERSYDLTGLKPGTEYTVSIYGVHNVYKDTNIRGLPLSAIFTTAPAPAPAPAPLPAPKNLVVSRVTEDSARLSWTAPDAAFDSFWIRYFEFVGSGEAIVLTVPGSERSYDLTGLKPGTEYVVNILGVKGGSISPPLSAIFTT : log10 of Kd value = 0.79

// ECB106 (designed binder, not shown: small tags and cut ends, Bispecific: P54AR4-83v23, (AP)5, P114AR7P94-A3v22) MLPAPKNLVVSEVTEDSARLSWDDPHAFYESFLIQYQESEKVGEAIVLTVPGSERSYDLTGLKPGTEYTVSIYGVHNVYKDTNIRGLPLSAIFTTAPAPAPAPAPLPAPKNLVVSRVTEDSARLSWTAPDAAFDSFWIRYFEFLGSGEAIVLTVPGSERSYDLTGLKPGTEYVVNILGVKGGKISPPLSAIFTT : log10 of Kd value = 0.71

// ECB94 (designed binder, not shown: small tags and cut ends, Bispecific: P54AR4-83v22, (AP)5, P114AR7P94-A3v22) MLPAPKNLVVSEVTEDSARLSWDDPWAFYESFLIQYQESEKVGEAIVLTVPGSERSYDLTGLKPGTEYTVSIYGVHNVYKDTNIRGLPLSAIFTTAPAPAPAPAPLPAPKNLVVSRVTEDSARLSWTAPDAAFDSFWIRYFEFLGSGEAIVLTVPGSERSYDLTGLKPGTEYVVNILGVKGGKISPPLSAIFTT : log10 of Kd value = 0.63

// ECB107 (designed binder, not shown: small tags and cut ends, Bispecific: P54AR4-83v23, (AP)5, P114AR9P121-A6v2) MLPAPKNLVVSEVTEDSARLSWDDPHAFYESFLIQYQESEKVGEAIVLTVPGSERSYDLTGLKPGTEYTVSIYGVHNVYKDTNIRGLPLSAIFTTAPAPAPAPAPLPAPKNLVVSRVTEDSARLSWTAPDAAFDSFWIRYFEFVGSGEAIVLTVPGSERSYDLTGLKPGTEYVVNILGVKGGSISPPLSAIFTT : log10 of Kd value = 0.95

// ECB109 (designed binder, not shown: small tags and cut ends, Bispecific: P54AR4-83v23, (AP)5, P114AR7P95-C5v2) MLPAPKNLVVSEVTEDSARLSWDDPHAFYESFLIQYQESEKVGEAIVLTVPGSERSYDLTGLKPGTEYTVSIYGVHNVYKDTNIRGLPLSAIFTTAPAPAPAPAPLPAPKNLVVSRVTEDSARLSWTAPDAAFDSFWIRYFEFLGSGEAIVLTVPGSERSYDLTGLKPGTEYVVNILSVKGGSISPPLSAIFTT : log10 of Kd value = 0.32
